target: Adrenergic receptor alpha-1 (Rattus norvegicus, UniProt P15823+P23944+P43140); experiment: Binding affinity against alpha-1 adrenergic receptor by measuring displacement of [3H]prazosin from rat brain cortex membranes (in vitro).; format: cell membranes, Membrane
Measurement Type: Ki (nM)
One number for each entry, in nM.

molecule="COc1ccccc1N1CCN(CC2CN3C(=O)Nc4ccccc4C3=N2)CC1 (configuration not stated)" val=1.3
molecule="O=C1Nc2ccccc2C2=NCC(CN3CCN(c4ccccc4)CC3)N12 (configuration not stated)" val=1.7
molecule="O=C1Nc2ccccc2C2=NC(CN3CCN(c4ccc(F)cc4)CC3)CN12 (configuration not stated)" val=14.4
molecule=COc1ccccc1N1CCN(CCn2c(=O)[nH]c3ccccc3c2=O)CC1 val=0.25
molecule="O=C1Nc2ccccc2C2=NCC(CN3CCN(c4ccccc4Cl)CC3)N12 (configuration not stated)" val=0.58
molecule="SC1=Nc2ccccc2C2=NC(CN3CCN(c4ccccc4)CC3)CN12 (configuration not stated)" val=158
molecule="COc1ccccc1N1CCN(CC2CN=C3c4ccccc4NC(=O)N32)CC1 (configuration not stated)" val=0.21
molecule="O=C1Nc2ccccc2C2=NC(CN3CCC(Cc4ccccc4)CC3)CN12 (configuration not stated)" val=35.8
molecule="O=C1Nc2ccccc2C2=NC(CN3CCC4(CCCCC4)CC3)CN12 (configuration not stated)" val=251.2
molecule="COc1cc2c(cc1OC)C1=NC(CN3CCN(c4ccccc4)CC3)CN1C(=O)N2 (configuration not stated)" val=30

Provide reported Ki for each item, in the same order as listed.
1. CSC1=Nc2ccccc2C2=NCC(CN3CCN(c4ccccc4Cl)CC3)N12 (configuration not stated)
2. CN1C(=O)N2CC(CN3CCN(c4ccccc4Cl)CC3)N=C2c2ccccc21 (configuration not stated)
3. O=C1Nc2ccccc2C2=NC(CNC3CCN(Cc4ccccc4)CC3)CN12 (configuration not stated)
4. O=C1Nc2ccccc2C2=NC(CN3CCN(Cc4ccccc4)CC3)CN12 (configuration not stated)
5. COC1=Nc2ccccc2C2=NCC(CN3CCN(c4ccccc4OC)CC3)N12 (configuration not stated)
6. O=C1Nc2ccccc2C2=NC(CN3CCN(c4ccccn4)CC3)CN12 (configuration not stated)
7. COc1cccc(N2CCN(CC3CN=C4c5ccccc5N=C(SC)N43)CC2)c1 (configuration not stated)

1. 0.34
2. 0.68
3. 586
4. 850
5. 0.07
6. 95.9
7. 48.8

Lab note: COc1ccccc1N1CCN(CC2CN=C3c4ccccc4N(C)C(=O)N32)CC1 (configuration not stated) gave Ki of 0.36

Where do these numbers come from? They come from ChEMBL document CHEMBL1126751.
